Molecular target: human TPH1 (Homo sapiens (Human), UniProt P17752)
Sequence (P17752 whole entry): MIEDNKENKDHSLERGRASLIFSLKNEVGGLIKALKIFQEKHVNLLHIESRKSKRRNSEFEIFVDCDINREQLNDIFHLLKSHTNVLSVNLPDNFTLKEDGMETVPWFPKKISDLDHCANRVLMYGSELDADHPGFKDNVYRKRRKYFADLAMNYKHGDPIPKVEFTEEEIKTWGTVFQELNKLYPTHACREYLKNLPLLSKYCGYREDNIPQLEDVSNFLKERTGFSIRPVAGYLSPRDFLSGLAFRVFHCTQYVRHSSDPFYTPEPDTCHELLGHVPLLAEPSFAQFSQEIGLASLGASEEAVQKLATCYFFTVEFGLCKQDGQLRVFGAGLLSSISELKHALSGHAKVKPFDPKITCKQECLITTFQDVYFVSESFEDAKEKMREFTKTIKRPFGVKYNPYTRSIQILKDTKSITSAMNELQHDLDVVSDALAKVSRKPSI
Assay: Biochemical in vitro assay using fluorescence readout (TPH1 inhibition)
Conditions: human TPH1, fluorescence readout
pIC50: −log10 of the molar value.

Molecule: Cc1nn2c3c(nc2s1)CCN(C(=O)COc1ccc(N(C)C)nc1Cl)C3c1cc(CN(C)C)cs1 (stereo not shown) [Example 1.8.4]
pIC50: 6.97
--
Molecule: Cc1nn2c3c(nc2s1)CCN(C(=O)COc1ccc(N2CCCS2(=O)=O)nc1Cl)C3c1ccc(Cl)cc1F (stereo not shown) [Example 1.4.49]
pIC50: 8.05
--
Molecule: Cc1noc(C)c1C1c2c(nc3sccn23)CCN1C(=O)COc1ccc(Cl)cc1Cl (stereo not shown) [Example 6.5.2]
pIC50: 7.21
--
Molecule: COc1ccc2c(OCC(=O)N3CCc4nc5sc(C)nn5c4C3c3ccc(Cl)cc3F)cc(C)nc2c1 (stereo not shown) [Example 1.4.63]
pIC50: 7.19
--
Molecule: Cc1cnc(C2c3c(nc4sc(C)nn34)CCN2C(=O)COc2ccc(-c3ncco3)nc2Cl)c(F)c1 (stereo not shown) [Example 1.31.13]
pIC50: 7.80
--
Molecule: COc1ccc(C2c3c(nc4sc(C)nn34)CCN2C(=O)COc2ccc3ccccc3c2)cc1OC (stereo not shown) [Example 1.1.1]
pIC50: 8.00
--
Molecule: Cc1nn2c3c(nc2s1)CCN(C(=O)COc1c(Cl)nc(N2CCOCC2)c(F)c1F)C3c1ncc(C2CC2)cc1F (stereo not shown) [Example 1.14.11]
pIC50: 6.91
--
Molecule: Cc1nn2c3c(nc2s1)CCN(C(=O)COc1ccc(C#N)cc1Cl)C3c1ccc(Cl)cc1F (stereo not shown) [Example 1.4.24]
pIC50: 7.96
--
Molecule: COCc1ccc(C2c3c(nc4sc(C)nn34)CCN2C(=O)COc2ccc(C(=O)NC3CC3)nc2Cl)c(F)c1 (stereo not shown) [Example 1.82.2]
pIC50: 7.85
--
Molecule: O=C(COc1ccc(C(F)(F)F)nc1Cl)N1CCc2nc3sccn3c2C1c1ncc(C2CC2)cc1F (stereo not shown) [Example 6.7.1]
pIC50: 7.96
--
Molecule: COC(=O)c1ccc(OCC(=O)N2CCc3nc4sc(C)nn4c3C2c2ccc(C3CC3)cc2F)c(Cl)n1 (stereo not shown) [Example 1.6.21]
pIC50: 8.10
--
Molecule: O=C(COc1cccnc1Cl)N1CCc2nc3sccn3c2C1c1ccc(Cl)cc1F (stereo not shown) [Example 6.4.4]
pIC50: 7.89
--
Molecule: O=C(COc1ccc(CN2CCOCC2)cc1Cl)N1CCc2nc3sccn3c2C1c1cccnc1F (stereo not shown) [Example 6.2.1]
pIC50: 7.92
--
Molecule: CCc1nc(C(=O)NC2CC2)ccc1OCC(=O)N1CCc2nc3sc(CF)nn3c2C1c1sc(C)nc1C (stereo not shown) [Example 7.4.1]
pIC50: 8.15
--
Molecule: COc1ccc(C2c3c(nc4sc(C)nn34)CCN2C(=O)COc2ccc(NS(C)(=O)=O)nc2Cl)c(F)c1 (stereo not shown) [Example 1.3.4]
pIC50: 8.10
--
Molecule: Cc1nn2c3c(nc2s1)CCN(C(=O)COc1ccc(C(=O)N(C)C)nc1Cl)C3c1ccc(C)c(F)c1F (stereo not shown) [Example 1.61.1]
pIC50: 8.15

###

Target: human TPH1 (Homo sapiens (Human))
Test: Biochemical in vitro assay using fluorescence readout (TPH1 inhibition)
Details: human TPH1, fluorescence readout
pIC50: −log10 of the molar value.
pIC50 values, listed per item

Molecule: CCn1nc(C(=O)OC)cc1OCC(=O)N1CCc2nc3sc(C)nn3c2C1c1ccc(Cl)cc1F (stereo not shown)
pIC50: 7.40
//
Molecule: O=C(COc1ccc(Cl)cc1Cl)N1CCc2nc3sccn3c2C1c1nc2ccccc2s1 (stereo not shown)
pIC50: 7.70
//
Molecule: CCc1nc(C)ccc1OCC(=O)N1CCc2nc3sccn3c2C1c1ccc(C(F)(F)F)nc1C (stereo not shown)
pIC50: 6.71
//
Molecule: Cc1nn2c3c(nc2s1)CCN(C(=O)COc1ccc(C#N)nc1Cl)C3c1ccc(C2CC2)cc1F (stereo not shown)
pIC50: 8.10
//
Molecule: Cc1nn2c3c(nc2s1)CCN(C(=O)COc1ccc(C(F)(F)F)nc1Cl)C3c1ncc(C2CC2)cc1F (stereo not shown)
pIC50: 7.77
//
Molecule: N#Cc1ccc(OCC(=O)N2CCc3nc4scnn4c3C2c2ccc(Cl)cc2F)c(Cl)c1 (stereo not shown)
pIC50: 7.51
//
Molecule: CCc1cc(Cl)ccc1OCC(=O)N1CCc2nc3sccn3c2C1c1c(C)nn(C)c1C (stereo not shown)
pIC50: 6.99
//
Molecule: Cc1nn2c3c(nc2s1)CCN(C(=O)COc1ccc(F)cc1Cl)C3c1ccc(C2CC2)cc1F (stereo not shown)
pIC50: 8.00
//
Molecule: CCc1nc(N2CCCS2(=O)=O)ccc1OCC(=O)N1CCc2nc3sc(CF)nn3c2C1c1ncc(C)cc1F (stereo not shown)
pIC50: 8.05
//
Molecule: N#Cc1ccc(OCC(=O)N2CCc3nc4sc(C5CC5)nn4c3C2c2ccc(Cl)cc2F)c(Cl)c1 (stereo not shown)
pIC50: 7.64
//
Molecule: COc1ccc(C2c3c(nc4sc(C)nn34)CCN2C(=O)COc2ccc(CN3CCOCC3)nc2Cl)c(F)c1 (stereo not shown)
pIC50: 8.05
//
Molecule: CS(=O)(=O)Nc1ccc(OCC(=O)N2CCc3nc4scnn4c3C2c2ccc(Cl)cc2F)c(Cl)n1 (stereo not shown)
pIC50: 7.96
//
Molecule: Cc1nn2c3c(nc2s1)CCN(C(=O)COc1ccc(C(F)(F)F)nc1Cl)C3c1sc(C(=O)N(C)C)cc1F (stereo not shown)
pIC50: 7.66
//
Molecule: Cc1ncc(OCC(=O)N2CCc3nc4sc(C)nn4c3C2c2ccc(Cl)cc2F)c(C)n1 (stereo not shown)
pIC50: 7.01
//
Molecule: CCc1nc(N2CCCS2(=O)=O)ccc1OCC(=O)N1CCc2nc3sc(C)nn3c2[C@@H]1c1sc(C)nc1C
pIC50: 8.30
//
Molecule: CCc1nc(C(=O)NC2CC2)ccc1OCC(=O)N1CCc2nc3sc(C)nn3c2C1c1sccc1F (stereo not shown)
pIC50: 7.92
//
Molecule: CCc1nc(C)ccc1OC1(C(=O)N2CCc3nc4sc(C)nn4c3C2c2ccc(C3CC3)cc2F)CC1 (stereo not shown)
pIC50: 6.73
//
Molecule: Cc1nn2c3c(nc2s1)CCN(C(=O)COc1cnc(C(F)(F)F)nc1Cl)C3c1ccc(Cl)cc1F (stereo not shown)
pIC50: 7.42
//
Molecule: COc1ccc(C2c3c(nc4sc(C)nn34)CCN2C(=O)COc2ccc(C(=O)NC3CC3)nc2Cl)c(F)c1 (stereo not shown)
pIC50: 8.00
//
Molecule: COC(=O)c1cnc(C2c3c(nc4sc(C)nn34)CCN2C(=O)COc2ccc(NS(=O)(=O)C3CC3)nc2Cl)s1 (stereo not shown)
pIC50: 7.35
//
Molecule: O=C(COc1ccc(CN2CCOCC2)nc1Cl)N1CCc2nc3sccn3c2C1c1ccc(Cl)cc1F (stereo not shown)
pIC50: 8.15
//
Molecule: CCN(CC)C(=O)c1ccc(OCC(=O)N2CCc3nc4sc(C)nn4c3[C@@H]2c2sccc2F)c(Cl)n1
pIC50: 7.72
//
Molecule: Cc1nc(C)c(C2c3c(nc4sc(C)nn34)CCN2C(=O)COc2ccc(C(=O)N(C)C3CC3)nc2Cl)s1 (stereo not shown)
pIC50: 7.72
//
Molecule: Cc1nn2c3c(nc2s1)CCN(C(=O)COc1ccc[n+]([O-])c1Cl)C3c1ccc(C2CC2)cc1F (stereo not shown)
pIC50: 6.60
//
Molecule: CCOC(=O)c1csc(C2c3c(nc4sc(C)nn34)CCN2C(=O)COc2ccc(N3CCOCC3)nc2Cl)n1 (stereo not shown)
pIC50: 8.15

###

Biological target: human TPH1 (Homo sapiens (Human), UniProt P17752)
Assay: Biochemical in vitro assay using fluorescence readout (TPH1 inhibition)
Settings: human TPH1, fluorescence readout
Method: Biochemical In Vitro Assay Using Fluorescence Readout To generate the enzyme, full length human TPH1 is cloned into the plasmid pET20b(+) (Novagen) and expressed in E. coli. […] The activity of TPH1 is determined by using a fluorescence assay. […] The amount of 5-hydroxy-L-tryptophan produced during the enzymatic reaction is determined by fluorescence readout. Fluorescence, as determined at 540 nm when excited at 300 nm wavelength, increases proportionally to the 5-hydroxy-L-tryptophan formed. […]
IC50 values for the compounds below.

Compound: Cc1nn2c3c(nc2s1)CCN(C(=O)COc1ccc(-c2ncco2)nc1Cl)[C@H]3c1sccc1F [Example 1.23.15]
Scale Unit: nM
IC50: 20
//
Compound: Cc1ccc(C2c3c(nc4sccn34)CCN2C(=O)COc2ccc(Cl)cc2C)c(F)c1 (centres unmarked) [Example 6.10.1]
Scale Unit: nM
IC50: 5
//
Compound: COc1ccc(C2c3c(nc4sccn34)CCN2C(=O)COc2ccc3ccncc3c2)c(F)c1 (centres unmarked) [Example 6.3.3]
Scale Unit: nM
IC50: 4
//
Compound: COc1nc(NS(C)(=O)=O)ccc1OCC(=O)N1CCc2nc3sc(C)nn3c2[C@@H]1c1ncc(C)cc1F [Example 1.31.20]
Scale Unit: nM
IC50: 77
//
Compound: Cc1cnc(C2c3c(nc4sc(C)nn34)CCN2C(=O)COc2ccc(N3CCOCC3)nc2Cl)c(F)c1 (centres unmarked) [Example 1.31.2]
Scale Unit: nM
IC50: 5
